# testProtocol: chemical genetic growth profiling, strain panel (AID 1159580);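 further: tested at 20 µM; growth read once vehicle control cultures reached saturation at 30 °C; 1 = growth at the plate median or of vehicle wells; lower values mean less growth of the strain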
# conditionInfo: S. cerevisiae deletion strains, growth OD, locus YER016W, strain bim1, stronger effect = lower value
The campaign covered roughly 5,500 compounds. About 2,000 (36%) were called active. About 18% were inconclusive and are not listed. This is one part of the list.
outcomeMeasure: normalized growth

Here are 3 compounds together with their reported answers.
>  <compound>
CC(=O)OCC(=O)[C@@]1(O)CCC2C3CC[C@@H]4C[C@H](O)CC[C@]4(C)C3C(=O)C[C@@]21C (some centres undefined)

>  <normalized growth>
1.02 (inactive)

$$$$
>  <compound>
CC(=O)Nc1ccc(O)cc1

>  <normalized growth>
0.987 (inactive)

$$$$
>  <compound>
CC(=O)Nc1cccc(O)c1

>  <normalized growth>
1.03 (inactive)

$$$$

Continue with the compound presented below.
(Q) # input compound: Nc1ccc(C(=O)Oc2ccccc2)c(O)c1 ; wanted: its normalized growth
(A) 0.941 (inactive)
